# Test description: viability loss in pontine glioma line – cell-based, SU-DIPG-XIII, MIPE5.0, CellTiter-Glo, qHTS, dose response (AID 1347064);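 as to AC50: cells exposed to compound for 48 hours before the viability read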
# Test parameters: CellTiter-Glo ATP luminescence
Records with an inconclusive call do not appear. Calls of active or inactive are those of the source. The limit is not given here; nearly all actives have AC50 up to about 23 µM.
# output must be one of TRUE = active, FALSE = inactive

Prompt: GET /call?item= COc1ccc(-c2c(-c3ccc(O)cc3O)n[nH]c2C)cc1 returns the recorded outcome of this test.
Completion: FALSE

Prompt: Moving on to the next molecule: COc1ccc(C(=O)C2CCN(CC(=O)N(Cc3nc4c(c(=O)[nH]3)COCC4)CC3CC3)CC2)cc1
Completion: FALSE

Prompt: Moving on to the next molecule: COc1ccc(/C=C\c2cc(OC)c(OC)c(OC)c2)cc1NC(=O)[C@H](N)CO
Completion: TRUE

Prompt: Moving on to the next molecule: COc1cc(Nc2ncc(F)c(Nc3ccc4c(n3)N(COP(=O)(O)O)C(=O)C(C)(C)O4)n2)cc(OC)c1OC
Completion: TRUE

Prompt: Moving on to the next molecule: CCN1C(=O)N2Cc3cc(OC)cc(OC)c3[C@@H](C)C=C2C12CCN(Cc1cc(C)cc(C)c1)CC2
Completion: TRUE
